Reported apparent KD of MS2 coat protein values are given for each entry in this list.
Tested on: MS2 coat protein
Test: apparent KD of MS2 coat protein; designed switch direction (-1 OFF switch, 1 ON switch): -1; higher = weaker reporter binding
Conditions: input ligand: microRNA oligo, concentration not stated

sequence.entry	apparent KD of MS2 coat protein
AGAGUGCUGCGAGGAUAUACAUGAGGAUCACCCAUGUGGAUCUGUGAGGCUUUGCCUCACAGGAUGUAGAAGGCGCAGUACUCA [Mat - Exclusion NG 2 - Mod of JL - D48] (Eterna round: R96, puzzle: Exclusion NG 2)	18.2 nM
CCCAGGUCAUCUCCCGGGAACAACAUGAGGAUCACCCAUGUCUAGGAUAUCCACCAGUCAAUAAAGGAGAAGGAGACGGUGGUU [Edatarte] (Eterna round: R96, puzzle: Exclusion NG 3)	20.2 nM
UAAGCAAGUGAGCCGAUUCACAUGAGGAUCACCCAUGUAAGAGAGGAUAUUUGAUUGGAUCGAUUAGAGAAGGUUCUAAUGUGG [Eternabot solution 25] (Eterna round: R96, puzzle: Exclusion NG 3)	28.9 nM
AACCAUGAGCGAGGAUAUCACCCUACGGAGUGGUGAGAAGGCGCAACAUGAGGAUCACCCAUGUACAAAUGCGGGACCCUUUUC [Zaorredila] (Eterna round: R96, puzzle: Exclusion NG 1)	21.6 nM

* * *

Tested on: MS2 coat protein
Assay: apparent KD of MS2 coat protein, switch OFF state (with FMN for OFF switches, without FMN for ON switches); designed switch direction (-1 OFF switch, 1 ON switch): -1; higher = weaker reporter binding
Details: FMN input: 0 or 200 uM; Eterna round: R93 (includes R88 designs)
Reported apparent KD of MS2 coat protein values are given for each entry in this list.
property.measured: apparent KD of MS2 coat protein

>>> df
                              sequence_entry                property_measured     result
 0  AGCUAGUCAGGAUAUGCGAAUAUGUCAAAAGACGUGAAGGGACAUGAGGAUCACCCAUGUAGAAGGGACUAGCA [Diamond 3]  apparent KD of MS2 coat protein  0.0365 µM
 1  ACCAGACAUGAGGAUCACCCAUGUCAGGAUAUGCAUCUUAGGAAAAAAAAACUAAGAUGCAGAAGGGACAAGGG [Design 5: Super Stable - A-U mutation]  apparent KD of MS2 coat protein  0.0201 µM
 2  CUCAAGUGAGGAUAUCAGUAGUAAAAAAAUAAAAUUACUACUGAGAAGGCACAUGAGGAUCACCCAUGUGCAAA [EX4 336: Super Stable 36]  apparent KD of MS2 coat protein   0.017 µM
 3  AACUAGUCAGGAUAUACGAACAUGUCAAAAAACAUAAAGGGACAUGAGGAUCACCCAUGUAGAAGGGACUAGCA [74%, Web mod - With 4 less G's]  apparent KD of MS2 coat protein   0.262 µM
 4  AUAGGCCUAGGAUAUACAUGAGGAUCACCCAUGUUAAUAUUUCAAACAUGAUAAACGUGUAGAAGGAGGAAUAA [JR_Exc003_Sub303]  apparent KD of MS2 coat protein  0.0508 µM
 5  AAAAAACAUGAGGAUCACCCAUGUAAGGAUAUGUAAAAUAAAAGAAAAAUAAAGAAAAGCAGAAGGUACAUGAA [JL wbt mod 14]  apparent KD of MS2 coat protein  0.0605 µM
 6  GAUAGGCGAGGAUAUACAUGAGGAUCACCCAUGUAAGUAAGCCUGGCUGAAACUGAAUGUAGAAGGCGCAAAUU [Mat - Exclusion 3 - Neo mod - D70]  apparent KD of MS2 coat protein  0.0677 µM
 7  UCGAUGCGAGGAUAUACUAAGGCAACUACUGCAGCUCAAAAACAUGAGGAUCACCCAUGUAGAAGGCGCAUAUA [JR_Exc002_Sub304]  apparent KD of MS2 coat protein  0.0181 µM
 8  AUCAUGUUAGGAUAUUAAAGAAAAGAAAAGAAAGAAAAGAAUAAGAAGGAACAUGAGGAUCACCCAUGUAAGAA [EteRNA is fun!]  apparent KD of MS2 coat protein  0.0297 µM
 9  AACAAGACAGGAUAUACAUGAGGAUCACCCAUGUCACAACAAAGCAGCGCAACACAAAGUAGAAGGGUCAUGAA [Ruby 12]  apparent KD of MS2 coat protein  0.0469 µM
10  AAAAAGUCAGGAUAUGCGAAGGCGUCUGAUAGACGAGGCUAGCAGAAGGGACAUGAGGAUCACCCAUGUAAAAA [Mat - Exclusion 4 - Rerun - D81]  apparent KD of MS2 coat protein   0.045 µM
11  AAAAAACAUGAGGAUCACCCAUGUGAGGAUAUCCUGAAGGGAAUAAAAUAACUCGAAAGGAGAAGGCGCAAAAA [Ex 1 May 32]  apparent KD of MS2 coat protein   0.033 µM
12  AACAGUACAGGAUAUACAUGAGGAUCACCCAUGUGAAGAUUAAGUGGAGUACCACAAAGUAGAAGGGUACUGGA [Ruby 89]  apparent KD of MS2 coat protein   0.101 µM

* * *

System: MS2 coat protein
Test: apparent KD of MS2 coat protein; designed switch direction (-1 OFF switch, 1 ON switch): -1; higher = weaker reporter binding
Details: input ligand: FMN 200 uM
Reported apparent KD of MS2 coat protein values are given for each entry in this list.

sequence.entry	apparent KD of MS2 coat protein
UUAUUAAUUAAUAUUAUAAGAUCACAUGAGGAUCACCCAUGUCAGGAUAUCAGCUCGUUUAGAGCUGAGAAGGGACAAAUAAUA [ExNG3/15-B2] (Eterna round: R96, puzzle: Exclusion NG 3)	118 nM
GCCGUAAGUGUGAGGAUAUACCUAUGGAAACAUAGGUAGAAGGCACAUGAGGAUCACCCAUGUCCUUAAUCGGC [Mat - Exclusion 4 - Eli Mod - D4] (Eterna round: R97, puzzle: Brourd's mod of Exclusion 4)	366 nM
ACGCGUGGCUAGGAUAUCGAGGAAUCUAGCCAGCGAGAAGGAGCCACAUGAGGAUCACCCAUGUGGUGAUCCUC [jl-ex6-4.65 ViennaUCT mod] (Eterna round: R97, puzzle: Exclusion 6)	6.76 nM
ACGGCGGCUCUAGGAUAUGACGACAUGAGGAUCACCCAUGUAGCCUUAGCCUUCACGAAAAUCGAUCAGAAGGAGAGCUCCAGG [Eternabot solution 19] (Eterna round: R96, puzzle: Exclusion NG 2)	13.5 nM

* * *

Test system: MS2 coat protein
Test: apparent KD of MS2 coat protein; higher = weaker reporter binding
Conditions: Eterna round: R107; input ligand: arginine 13.2 mM
Respond with fulfilled for apparent KD of MS2 coat protein values of 20 nM and above, not fulfilled for values below.

sequence.entry	cat
UGUAACAUGAGGAUCACCCAUGUAAGUGAUACCAGAUAAGUAGUAGUCCCUUGGCAGCAUAUUGGGCAAGUGUAUAGUCUAUACG [Same State - Theophylline A (Freestyle 6)]	fulfilled
CUUAUAUAUACGGCCGCCACUUACUCAUGAGGUAACAACAUGAGGAUCACCCAUGUUUGAGGAUCAAGGACCGGGUAUAUAUAAG [AstrosSSTry#18]	fulfilled
ACAUGAGGAUCACCCAUGUGGCGUCUUGAUACCAGACCCGCACUAGUCCCUUGGCAGCAACUACGUGAGGGUCGCCCAUGUGUAG [zxdullin]	fulfilled
GUCCGACAUGAGGAUCACCCAUGUACUGAAGGAGCGGACAAAUGUCCAGGUAGGUCGCAGCUAUAUGGUGUGGACCGAUCCGGAC [Ustius]	not fulfilled
CAGAGCUACCGGGAUACCAGAAAUGGUAUUCCUUAAUUUCUUACAUGAGGAUCACCCAUGUUCCCUUGGCAGCUUGGUAGCUCUG [ETHB #8]	fulfilled
UGUUUGGUGCGCGAGUGUUGGAUAAUUGAUACCAGUGUAGAUGUGCGCCCUUGGCAGCGAAUCCUAACAUGAGGAUCACCCAUGU [5.Y]	fulfilled
UUUAGUCAAUCGGCCGCCACUGACAUGAGGAUCACCCAUGUAGGUAAGGAUCAACCUCGAAAGUACAGGACCGGGAUUCGCCUCU [theeternabot_exclusion_MS2_Trp_B_45]	fulfilled
ACGUCAACCCUUAUGUUGAUGCAAGACGAUACCAGCCUGGAUACAGGCCCUUGGCAGCGUCAACAUGAGGAUCACCCAUGUAAUA [(T)''-(MT)'-(Theo)-(Ms2)]	fulfilled
ACGUAAUGCAGAAGGAGCGUCUGAUUUUAACAUGAGGAUCACCCAUGUAAUAUUUAUGGUAGACAGGUAGGUCGCUGAAGUACGA [JR_ExcArginiB_Sub002]	not fulfilled
CGGCCCUCACUUGAGGAACACCCAAGUGAUACCAGCCUGGAAACAGGCCCUUGGCAGCACUAGGUCAUCAAAGAUGACCAAGCCG [TheoAX 29 #OpenEnded #AlternativeMS2]	not fulfilled
AAUAACAUGAGGAUCACCCAUGUAAGUAAACGAGGACCGGUACGGCCGCCACUCGAAUAAAUAAAGUACCGGUAAGAUCCAUAGA [Default title]	not fulfilled
GCACGGGCGAUCGGCACUUUUACUAAUAUACGAGGACCGGUACGGCCGCCACUCGAGCUAAGACAUGAGGAUCACCCAUGUAACG [theeternabot_exclusion_MS2_Trp_A_41]	fulfilled
